All figures here come from patent US11020462B2.

experiment: SP16 pharmacokinetic profile after intravenous injection (LC/MS/MS of plasma); type: in vivo, rats; conditions: rat, in vivo; SP16, IV (5 mg/kg), normal rats
observable: C0 (ng/mL)
Please give a number only; it is taken to be in ng/mL.

Answer with reported C0 of CC[C@H](C)[C@H](NC(=O)[C@H](CCSC)NC(=O)[C@H](CC(C)C)NC(=O)[C@H](Cc1ccccc1)NC(=O)[C@@H](NC(=O)[C@H](Cc1ccccc1)NC(=O)[C@@H]1CCCN1C(=O)[C@H](CCCCN)NC(=O)[C@H](CC(N)=O)NC(=O)[C@H](Cc1ccccc1)NC(=O)[C@H](CCCCN)NC(=O)[C@@H](N)C(C)C)C(C)C)C(=O)N[C@@H](CCC(=O)O)C(=O)N[C@@H](CCC(N)=O)C(=O)N[C@@H](CC(N)=O)C(=O)N[C@H](C(=O)N[C@@H](CCCCN)C(=O)O)[C@@H](C)O
2500

====

Assay: SP16 pharmacokinetic profile after intravenous injection (LC/MS/MS of plasma)
Type: in vivo, rats
Conditions: rat, in vivo; SP16, IV (5 mg/kg), normal rats; read-out: AUC to Last
Description: The following table provides the results from an assay for SP16's pharmacokinetic profile. In performing the assay, three normal rats were injected intravenously with 5 mg/kg SP16 and the plasma concentration of SP16 established at 8 time points following the injection. […] The assay was executed by Apredica, Boston, Mass.
observable: AUC (ng·h/mL)
Express the result in ng·h/mL but write the number alone.

Supply measured AUC of CC[C@H](C)[C@H](NC(=O)[C@H](CCSC)NC(=O)[C@H](CC(C)C)NC(=O)[C@H](Cc1ccccc1)NC(=O)[C@@H](NC(=O)[C@H](Cc1ccccc1)NC(=O)[C@@H]1CCCN1C(=O)[C@H](CCCCN)NC(=O)[C@H](CC(N)=O)NC(=O)[C@H](Cc1ccccc1)NC(=O)[C@H](CCCCN)NC(=O)[C@@H](N)C(C)C)C(C)C)C(=O)N[C@@H](CCC(=O)O)C(=O)N[C@@H](CCC(N)=O)C(=O)N[C@@H](CC(N)=O)C(=O)N[C@H](C(=O)N[C@@H](CCCCN)C(=O)O)[C@@H](C)O in your reply.
900

====

test: SP16 pharmacokinetic profile after intravenous injection (LC/MS/MS of plasma); type: in vivo, rats; settings: rat, in vivo, iv; 5 mg/kg intravenously, three normal rats; read-out: T1/2 (half-life) (converted)
observable: half-life (h)
Lab book: enter the figure in h, no units written.

Kindly indicate its recorded half-life. Item: CC[C@H](C)[C@H](NC(=O)[C@H](CCSC)NC(=O)[C@H](CC(C)C)NC(=O)[C@H](Cc1ccccc1)NC(=O)[C@@H](NC(=O)[C@H](Cc1ccccc1)NC(=O)[C@@H]1CCCN1C(=O)[C@H](CCCCN)NC(=O)[C@H](CC(N)=O)NC(=O)[C@H](Cc1ccccc1)NC(=O)[C@H](CCCCN)NC(=O)[C@@H](N)C(C)C)C(C)C)C(=O)N[C@@H](CCC(=O)O)C(=O)N[C@@H](CCC(N)=O)C(=O)N[C@@H](CC(N)=O)C(=O)N[C@H](C(=O)N[C@@H](CCCCN)C(=O)O)[C@@H](C)O
1.9

====

test: SP16 pharmacokinetic profile after intravenous injection (LC/MS/MS of plasma); type: in vivo, rats; conditions: rat, in vivo, iv; 5 mg/kg intravenously, three normal rats
observable: Cmax
Returns: string containing the number followed by the unit.

Name the recorded Cmax of the compound listed here: CC[C@H](C)[C@H](NC(=O)[C@H](CCSC)NC(=O)[C@H](CC(C)C)NC(=O)[C@H](Cc1ccccc1)NC(=O)[C@@H](NC(=O)[C@H](Cc1ccccc1)NC(=O)[C@@H]1CCCN1C(=O)[C@H](CCCCN)NC(=O)[C@H](CC(N)=O)NC(=O)[C@H](Cc1ccccc1)NC(=O)[C@H](CCCCN)NC(=O)[C@@H](N)C(C)C)C(C)C)C(=O)N[C@@H](CCC(=O)O)C(=O)N[C@@H](CCC(N)=O)C(=O)N[C@@H](CC(N)=O)C(=O)N[C@H](C(=O)N[C@@H](CCCCN)C(=O)O)[C@@H](C)O
2500 ng/mL

====

experiment: SP16 pharmacokinetic profile after intravenous injection (LC/MS/MS of plasma); assay type: in vivo, rats; conditions: rat, in vivo; SP16, IV (5 mg/kg), normal rats
observable: MRT inf (h)
A number alone suffices; assume h.

Answer with the recorded MRT inf for the molecule listed here: CC[C@H](C)[C@H](NC(=O)[C@H](CCSC)NC(=O)[C@H](CC(C)C)NC(=O)[C@H](Cc1ccccc1)NC(=O)[C@@H](NC(=O)[C@H](Cc1ccccc1)NC(=O)[C@@H]1CCCN1C(=O)[C@H](CCCCN)NC(=O)[C@H](CC(N)=O)NC(=O)[C@H](Cc1ccccc1)NC(=O)[C@H](CCCCN)NC(=O)[C@@H](N)C(C)C)C(C)C)C(=O)N[C@@H](CCC(=O)O)C(=O)N[C@@H](CCC(N)=O)C(=O)N[C@@H](CC(N)=O)C(=O)N[C@H](C(=O)N[C@@H](CCCCN)C(=O)O)[C@@H](C)O
1.1

====

molecular target: hERG (Homo sapiens); construct: Apredica, Boston, Mass; (contract laboratory that ran the study); assay: cell-based; assay type: cell-based; conditions: hERG, 25 μM
observable: activity at 25 µM (%)
Write the answer as a number in %, unit excluded.

Answer with the recorded activity at 25 µM for the compound listed here: CC[C@H](C)[C@H](NC(=O)[C@H](CCSC)NC(=O)[C@H](CC(C)C)NC(=O)[C@H](Cc1ccccc1)NC(=O)[C@@H](NC(=O)[C@H](Cc1ccccc1)NC(=O)[C@@H]1CCCN1C(=O)[C@H](CCCCN)NC(=O)[C@H](CC(N)=O)NC(=O)[C@H](Cc1ccccc1)NC(=O)[C@H](CCCCN)NC(=O)[C@@H](N)C(C)C)C(C)C)C(=O)N[C@@H](CCC(=O)O)C(=O)N[C@@H](CCC(N)=O)C(=O)N[C@@H](CC(N)=O)C(=O)N[C@H](C(=O)N[C@@H](CCCCN)C(=O)O)[C@@H](C)O [SP16]
89

====

test: SP16 pharmacokinetic profile after intravenous injection (LC/MS/MS of plasma); type: in vivo, rats; conditions: rat, in vivo; SP16, IV (5 mg/kg), normal rats; read-out: Vss
observable: Vd (L)
The reply should be a number in L, with the unit left off.

Look up and report measured Vd for this entry: CC[C@H](C)[C@H](NC(=O)[C@H](CCSC)NC(=O)[C@H](CC(C)C)NC(=O)[C@H](Cc1ccccc1)NC(=O)[C@@H](NC(=O)[C@H](Cc1ccccc1)NC(=O)[C@@H]1CCCN1C(=O)[C@H](CCCCN)NC(=O)[C@H](CC(N)=O)NC(=O)[C@H](Cc1ccccc1)NC(=O)[C@H](CCCCN)NC(=O)[C@@H](N)C(C)C)C(C)C)C(=O)N[C@@H](CCC(=O)O)C(=O)N[C@@H](CCC(N)=O)C(=O)N[C@@H](CC(N)=O)C(=O)N[C@H](C(=O)N[C@@H](CCCCN)C(=O)O)[C@@H](C)O
0.149

====

molecular target: hERG (Homo sapiens, UniProt Q12809); construct: Apredica, Boston, Mass; (contract laboratory that ran the study); experiment: cell-based; format: cell-based; details: hERG, 1 μM
Sequence (Q12809 whole entry): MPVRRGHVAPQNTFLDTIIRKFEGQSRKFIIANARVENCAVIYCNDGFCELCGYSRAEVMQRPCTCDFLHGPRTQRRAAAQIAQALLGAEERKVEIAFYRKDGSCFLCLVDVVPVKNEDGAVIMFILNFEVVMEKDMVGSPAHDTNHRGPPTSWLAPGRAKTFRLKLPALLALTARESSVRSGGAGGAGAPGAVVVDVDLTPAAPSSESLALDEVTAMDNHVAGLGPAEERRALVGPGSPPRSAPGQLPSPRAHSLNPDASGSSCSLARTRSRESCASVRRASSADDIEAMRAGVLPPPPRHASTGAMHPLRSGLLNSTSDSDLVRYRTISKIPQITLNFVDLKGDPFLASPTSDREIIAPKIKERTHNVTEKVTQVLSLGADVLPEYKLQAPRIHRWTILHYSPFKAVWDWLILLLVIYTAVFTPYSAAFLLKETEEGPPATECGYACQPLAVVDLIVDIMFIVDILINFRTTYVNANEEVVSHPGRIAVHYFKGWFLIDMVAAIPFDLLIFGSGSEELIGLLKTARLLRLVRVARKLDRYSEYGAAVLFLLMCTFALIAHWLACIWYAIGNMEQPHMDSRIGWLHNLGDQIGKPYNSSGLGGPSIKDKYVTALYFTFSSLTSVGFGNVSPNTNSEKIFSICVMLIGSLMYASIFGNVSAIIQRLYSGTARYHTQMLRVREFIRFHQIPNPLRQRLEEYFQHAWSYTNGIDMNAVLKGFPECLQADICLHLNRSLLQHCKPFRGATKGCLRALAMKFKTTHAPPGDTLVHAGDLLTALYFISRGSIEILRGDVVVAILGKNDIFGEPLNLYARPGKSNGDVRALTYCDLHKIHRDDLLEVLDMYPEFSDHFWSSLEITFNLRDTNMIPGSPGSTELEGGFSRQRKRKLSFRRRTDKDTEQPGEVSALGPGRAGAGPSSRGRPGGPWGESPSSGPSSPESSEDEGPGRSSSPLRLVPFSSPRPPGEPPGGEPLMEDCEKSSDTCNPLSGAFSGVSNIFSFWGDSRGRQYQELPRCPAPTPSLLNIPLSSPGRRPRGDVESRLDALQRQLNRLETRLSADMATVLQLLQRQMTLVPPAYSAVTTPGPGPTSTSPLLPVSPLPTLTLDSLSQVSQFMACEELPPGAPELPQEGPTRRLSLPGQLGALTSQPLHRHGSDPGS
observable: activity at 1 µM
Please don't drop the unit; write it after the number.

Give the reported activity at 1 µM for this molecule. CC[C@H](C)[C@H](NC(=O)[C@H](CCSC)NC(=O)[C@H](CC(C)C)NC(=O)[C@H](Cc1ccccc1)NC(=O)[C@@H](NC(=O)[C@H](Cc1ccccc1)NC(=O)[C@@H]1CCCN1C(=O)[C@H](CCCCN)NC(=O)[C@H](CC(N)=O)NC(=O)[C@H](Cc1ccccc1)NC(=O)[C@H](CCCCN)NC(=O)[C@@H](N)C(C)C)C(C)C)C(=O)N[C@@H](CCC(=O)O)C(=O)N[C@@H](CCC(N)=O)C(=O)N[C@@H](CC(N)=O)C(=O)N[C@H](C(=O)N[C@@H](CCCCN)C(=O)O)[C@@H](C)O [SP16]
78%

====

molecular target: hERG (Homo sapiens); construct: Apredica, Boston, Mass; (contract laboratory that ran the study); experiment: cell-based; format: cell-based; conditions: hERG, 0.2 μM
observable: activity at 0.2 µM (%)
Give just the number in %; leave the unit off.

Look up and state reported activity at 0.2 µM for CC[C@H](C)[C@H](NC(=O)[C@H](CCSC)NC(=O)[C@H](CC(C)C)NC(=O)[C@H](Cc1ccccc1)NC(=O)[C@@H](NC(=O)[C@H](Cc1ccccc1)NC(=O)[C@@H]1CCCN1C(=O)[C@H](CCCCN)NC(=O)[C@H](CC(N)=O)NC(=O)[C@H](Cc1ccccc1)NC(=O)[C@H](CCCCN)NC(=O)[C@@H](N)C(C)C)C(C)C)C(=O)N[C@@H](CCC(=O)O)C(=O)N[C@@H](CCC(N)=O)C(=O)N[C@@H](CC(N)=O)C(=O)N[C@H](C(=O)N[C@@H](CCCCN)C(=O)O)[C@@H](C)O
95
